System: T1, Soluble ASGR-1 (human, UniProt P07306 62-291, biotinylated)
T1 construct: Soluble recombinant protein; also called recombinant, soluble ASGR-1 biotinylated protein
T1 sequence: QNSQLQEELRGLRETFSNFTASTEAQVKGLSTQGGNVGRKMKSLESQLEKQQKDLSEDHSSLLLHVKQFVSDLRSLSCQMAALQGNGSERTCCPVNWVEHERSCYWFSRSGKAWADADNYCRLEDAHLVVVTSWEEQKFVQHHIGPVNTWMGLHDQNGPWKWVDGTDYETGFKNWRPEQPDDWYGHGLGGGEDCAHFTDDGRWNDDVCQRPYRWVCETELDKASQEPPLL
Protocol Notes: limited antigen binding assay; biotinylated soluble ASGR-1 coated at 2.5 ng/mL on LumAvidin beads, FACS
Property: FACS Geomean; scope: individual binders
Number in FACS Geomean, nothing else.

Take a look at these entries with their results.
218G4 (antibody, V domains shown, Tested as hybridoma supernatant at normalized concentration) VH: QVQLVESGGGVVQPGRSLRLSCAASGFTFSSYGLHWVRQAPGKGLEWVAVIWYDGSNKYYADSVKGRFTISRDNSKNTLYLQMNSLRVEDTAVYYCANWYYYYYGMDVWGQGTTVTVSS VL: QSVLTQPPSVSAAPGQKVTISCSGSSSNIGNNYVSWYQQLPGTAPKLLLYDSNKRPSGIPARFSGSKSGTSATLGITGLQTGDEADYYCGTWDSSLNTVVFGGGTKLTVL = 15100
4H6 (antibody, V domains shown, Tested as hybridoma supernatant at normalized concentration) VH: QVQLVQSGAEVKKPGASVKVSCKASGYTFTDYYLHWVRQAPGQGLEWMGWIHPNSGGTNYAQKFQGRVTMTRDTSISTAYMGLSSLRSDDTAVYYCARDGTSSFDYWGQGTLVTVSS VL: DIQMTQSPSSVSASVGDRVTITCRASQGISRWLAWYQQKPGKAPKLLIYGASSLQSGVPSRFSGSGSGTDFTLTISSLQPEDFAIYYCQQANSFPFTFGPGTKVDIK = 2990
193E7 (antibody, V domains shown, Tested as hybridoma supernatant at normalized concentration) VH: QVQLQQWGAGLLKPSETLSLTCAVYGGSFSGYFWTWIRQPPGKGLEWIGEINHSGSTNYNPSLKSRVTISVDTSKNQFSLKLSSVTAADTAVYYCARDYGADYWGQGTLVAVSA VL: DIQMTQSPSSLSASVGDRVTITCRASQGIRNDLGWYQQKPGKAPKRLIYSASSLQRGVPSRFSGSGSGTEFTLTISSLQPEDFATYYCLQHKRYPLTFGGGTKVEIK = 18300
7E11 (antibody, V domains shown, Tested as hybridoma supernatant at normalized concentration) VH: QVQLVESGGGVVQPGRSLRLSCAASGFTFSSFGMHWVRQAPGKGLEWVAIIWHDGSNKYYADSVKGRFTISRDNSNNTLYLQMSSLRAEDTAVYYCARDLSMGGMDVWGQGTTVTVSS VL: DIQMTQSPSSLSASVGDRVTIACRASQNIISYLNWYQQKPGKAPKFLIYTASSLQSGVPSRFSGSGSGTDFTLTISSLQPEDFAIYYCQQTYSTPLTFGGGTKVEIK = 4660
25A4 (antibody, V domains shown, Tested as hybridoma supernatant at normalized concentration) VH: QVLLVQSGAEVKRPGASVKVSCKASGYTFTNYDINWVRQATGQGLEWMGWMYPNSGNTGYAQKFQGRVTMTRNTSISTAYMELSSLRSEDTAVYYCASSSGWYYFDYWGQGTLVTVSS VL: DIVMTQFPDSLAVSLGERATIKCKSSQSVLYSSHNNNYLAWYQQKPGQPPKLLLYWASTRESGVPDRFSGSGSGTEFTLTISSLEAEDVAVYYCQQYYSTPPTFGQGTKVEIK = 18000

Now examine the next entry.
IN: Could you tell me which FACS Geomean is on file for 190F8 (antibody, V domains shown, Tested as hybridoma supernatant at normalized concentration) VH: QVQLVESGGGVVQPGRSLRLSCAASGFTFSTYGMHWVRQAPGKGLEWVAVIWYDGSNKNYADSVKGRFTISRDNSKNTLYLQMNSLRAEDTAVYYCARDQGVGYDGLDVWGQGTTVTVSS VL: DIQMTQSPSSLSASVGDRVTITCRTSQGIGNYLAWFQQKPGKAPKSLLYKASSLQSGVPSKFSGSGSGTDFTLTISSLQPEDFATYYCQQYMTYPLTFGGGTKVEIK ?
OUT: 13900
